Biological target: PI 3-kinase gamma (Homo sapiens, UniProt P48736)
Sequence (P48736 whole entry): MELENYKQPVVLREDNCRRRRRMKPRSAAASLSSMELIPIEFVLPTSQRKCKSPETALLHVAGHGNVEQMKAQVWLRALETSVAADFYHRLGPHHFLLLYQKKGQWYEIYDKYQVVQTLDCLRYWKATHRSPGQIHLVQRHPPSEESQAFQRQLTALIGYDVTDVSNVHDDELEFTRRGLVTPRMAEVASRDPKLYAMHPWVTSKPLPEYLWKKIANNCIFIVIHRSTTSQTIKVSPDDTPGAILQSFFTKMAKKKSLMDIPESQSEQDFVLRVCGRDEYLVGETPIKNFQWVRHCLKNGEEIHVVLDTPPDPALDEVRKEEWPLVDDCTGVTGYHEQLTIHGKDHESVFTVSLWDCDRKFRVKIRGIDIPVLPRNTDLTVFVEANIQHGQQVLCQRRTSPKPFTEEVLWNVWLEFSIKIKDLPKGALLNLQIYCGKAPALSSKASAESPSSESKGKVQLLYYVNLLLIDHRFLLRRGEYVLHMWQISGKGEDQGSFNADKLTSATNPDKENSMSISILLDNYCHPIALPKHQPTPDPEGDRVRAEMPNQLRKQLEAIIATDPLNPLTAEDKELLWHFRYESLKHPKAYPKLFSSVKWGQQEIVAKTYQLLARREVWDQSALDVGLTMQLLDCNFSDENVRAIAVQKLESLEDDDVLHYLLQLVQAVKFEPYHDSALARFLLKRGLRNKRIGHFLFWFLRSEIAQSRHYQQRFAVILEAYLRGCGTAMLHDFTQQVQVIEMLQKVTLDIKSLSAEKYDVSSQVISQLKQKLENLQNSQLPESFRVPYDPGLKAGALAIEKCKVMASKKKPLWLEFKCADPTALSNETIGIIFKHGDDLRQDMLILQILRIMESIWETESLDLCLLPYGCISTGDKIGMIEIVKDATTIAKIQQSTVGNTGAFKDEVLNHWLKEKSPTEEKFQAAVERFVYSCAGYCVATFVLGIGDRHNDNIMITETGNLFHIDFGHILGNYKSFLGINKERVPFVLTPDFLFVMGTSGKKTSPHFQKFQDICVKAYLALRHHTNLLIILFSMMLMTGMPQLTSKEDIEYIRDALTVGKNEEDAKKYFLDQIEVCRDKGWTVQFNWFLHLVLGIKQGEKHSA
Assay: TR-FRET Adapta assay, assay E
Format: biochemical
Details: read-out: Assay E PI3Kγ IC50
Label True when IC50 < 0.06 µM; otherwise False.

Ask: Here's an entry: Cc1ccc(S(=O)(=O)NC[C@H]2CCCO2)cc1-c1cnc(N)c(-n2cncn2)n1 [Example 127.14] . Is its IC50 below 0.06 µM?
Result: False

Ask: I wonder whether Cc1ncc(-c2nc(-c3cc(S(=O)(=O)NC4CC(O)C4)ccc3C)cnc2N)s1 (mixture of isomers) [Example 43] has IC50 below 0.06 µM. Can you tell?
Result: True

Ask: Record Cc1ccc(S(=O)(=O)NCC2(CO)CC2)cc1-c1cnc(N)c(-n2cncn2)n1 [Example 127.38] : is its IC50 strictly below 0.06 µM?
Result: False

Ask: Say whether its IC50 is strictly beneath 0.06 µM. Entry: Cc1cc(-c2nc(-c3cc(S(=O)(=O)NC[C@@](C)(O)C(F)(F)F)ccc3C)cnc2N)ccn1 [Example 129.20]
Result: False

Ask: Consider the compound Cc1ccc(S(=O)(=O)NCCC(C)(C)O)cc1-c1cnc(N)c(-n2cccn2)n1 [Example 62] . Is its IC50 strictly less than 0.06 µM?
Result: True

Ask: Hi there! Is IC50 for Cc1ccc(S(=O)(=O)NCCC(C)(C)O)cc1-c1cnc(N)c(-c2cc(C3CC3)no2)n1 [Example 78] below 0.06 µM, do you know?
Result: True

Ask: hey, is IC50 for Cc1ccc(S(=O)(=O)NCCC(C)(C)O)cc1-c1cnc(N)c(-c2cn(C)nc2C)n1 [Example 12] lower than 0.06 µM or not?
Result: True

Ask: Consider the compound Cc1ccc(S(=O)(=O)NCCC(C)(C)O)cc1-c1cnc(N)c(-c2cncnc2)n1 [Example 119.20] . Is its IC50 strictly less than 0.06 µM?
Result: False

---

Field: IC50. Provide a value for each of the molecules that follow.
Molecular target: UniProt Q8NEB9
Sequence (Q8NEB9 whole entry, species assumed): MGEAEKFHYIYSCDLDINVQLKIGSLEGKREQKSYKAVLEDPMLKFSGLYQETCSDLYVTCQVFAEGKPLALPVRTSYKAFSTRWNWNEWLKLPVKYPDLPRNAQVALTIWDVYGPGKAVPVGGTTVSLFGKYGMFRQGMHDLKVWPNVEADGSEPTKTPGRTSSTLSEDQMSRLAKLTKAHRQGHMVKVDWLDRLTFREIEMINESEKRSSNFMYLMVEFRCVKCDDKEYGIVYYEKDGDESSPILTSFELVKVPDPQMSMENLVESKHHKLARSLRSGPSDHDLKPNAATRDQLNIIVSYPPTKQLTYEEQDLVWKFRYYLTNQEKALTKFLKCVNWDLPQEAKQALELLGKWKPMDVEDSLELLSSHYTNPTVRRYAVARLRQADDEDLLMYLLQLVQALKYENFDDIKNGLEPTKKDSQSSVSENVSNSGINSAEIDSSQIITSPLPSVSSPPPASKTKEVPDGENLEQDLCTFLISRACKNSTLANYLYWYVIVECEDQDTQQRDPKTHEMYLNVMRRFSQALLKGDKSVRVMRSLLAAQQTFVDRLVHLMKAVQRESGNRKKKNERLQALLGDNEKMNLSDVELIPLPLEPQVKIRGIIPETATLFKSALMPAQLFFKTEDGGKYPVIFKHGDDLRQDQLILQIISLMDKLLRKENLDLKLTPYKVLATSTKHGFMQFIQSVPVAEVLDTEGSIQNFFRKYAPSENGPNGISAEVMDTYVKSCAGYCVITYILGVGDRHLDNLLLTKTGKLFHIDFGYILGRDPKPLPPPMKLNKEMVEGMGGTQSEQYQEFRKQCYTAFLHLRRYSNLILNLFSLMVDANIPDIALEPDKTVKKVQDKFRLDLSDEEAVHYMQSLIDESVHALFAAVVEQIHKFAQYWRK
Assay: Kinase Glo Luminescent Kinase Assay (Kglo), assay C
Type: biochemical
Settings: read-out: Assay C VPS34 IC50

Ask: Given the entry Cc1cc(-c2nc(-c3cc(S(=O)(=O)NCC4CCOC4)ccc3C)cnc2N)ccn1 (stereo not shown) , report its measured IC50.
Result: > 9.1 µM

Ask: Which IC50 is listed for Cc1ccc(S(=O)(=O)NC[C@@H]2CCOC2)cc1-c1cnc(N)c(-n2cncn2)n1 ?
Result: > 10 µM

Ask: Return reported IC50; argument: Cc1ccc(S(=O)(=O)NCC(C)(C)O)cc1-c1cnc(N)c(-c2cnn(C)n2)n1
Result: > 10 µM

Ask: Give its IC50 value. Item: Cc1ccc(S(=O)(=O)NC[C@H]2CCOC2)cc1-c1cnc(N)c(-n2cncn2)n1
Result: > 10 µM

Ask: Can you look up the measured IC50 of Cc1ccc(S(=O)(=O)NCC(C)(C)O)cc1-c1cnc(N)c(-c2cn(C)nn2)n1 for me?
Result: > 10 µM

Ask: Fill in the blank: the reported IC50 of Cc1ccc(S(=O)(=O)NCC2CCN(C)C2)cc1-c1cnc(N)c(-n2cncn2)n1 (stereo not shown) is ____.
Result: > 10 µM

Ask: Quick check: IC50 of Cc1ccc(S(=O)(=O)NCCC(C)(C)O)cc1-c1cnc(N)c(-c2cc(Cl)cnc2F)n1 ?
Result: > 9.1 µM

Ask: Name the reported IC50 value associated with the molecule Cc1ccc(S(=O)(=O)NCC2(O)CCC2)cc1-c1cnc(N)c(-n2cncn2)n1
Result: > 10 µM

Ask: Look at this molecule and give its reported IC50. Cc1ccc(S(=O)(=O)NCCC(C)(C)O)cc1-c1cnc(N)c(-c2cnn(C(C)C)c2)n1
Result: > 9.1 µM

Ask: So what's the measured IC50 for this one? Cc1cc(Cl)c(S(=O)(=O)NCC(C)(C)O)cc1-c1cnc(N)c(-n2cncn2)n1
Result: > 10 µM

Ask: Sample Cc1ccc(S(=O)(=O)NCCC(C)(C)O)cc1-c1cnc(N)c(-c2cc(C(F)(F)F)nn2C)n1 — what was its IC50?
Result: > 9.1 µM

Ask: For the molecule Cc1cnn(-c2nc(-c3cc(S(=O)(=O)N[C@H]4CC[C@H](O)CC4)ccc3C)cnc2N)c1 , what IC50 is on record?
Result: > 9.1 µM

Ask: Given the entry Cc1ccc(S(=O)(=O)NOC(C)(C)C)cc1-c1cnc(N)c(-n2cncn2)n1 , report its measured IC50.
Result: > 10 µM

Ask: Which IC50 value belongs to Cc1ccc(S(=O)(=O)NCC(F)(F)F)cc1-c1cnc(N)c(-n2cncn2)n1 ?
Result: > 10 µM

Ask: So what's the measured IC50 for this one? Cc1ccc(S(=O)(=O)N2CC(C)(O)C2)cc1-c1cnc(N)c(-n2cncn2)n1
Result: > 9.1 µM

Ask: Fill blank: measured IC50 of the molecule Cc1ccc(S(=O)(=O)NC2CC3(CC(O)C3)C2)cc1-c1cnc(N)c(-c2cn(C)nc2C)n1 (stereo not shown) [Example 74] is ____.
Result: > 10 µM

The reported measurements were obtained from patent US10004732B2.
